Biological target: T1, TLR4 TIR domain BB loop peptide (Homo sapiens)
T1 chain: RDFIPGVAIAA
Experiment: SPR
Ends that are not written are not given here.
assay readout: Kd (µM)
Field: numeric (µM). Do not append units.

# Kd lookup, item RQIKIWFQNRRMKWKKSHCRVLLI (also: biotinylated and immobilized) [TIP1 (TIRAP TIR-derived decoy peptide with N-terminal antennapedia CPP)]
40.2
